assay system: cloned human H3 receptors, stably expressed in SK-N-MC cells (Homo sapiens, UniProt Q9Y5N1)
Sequence (Q9Y5N1 whole entry): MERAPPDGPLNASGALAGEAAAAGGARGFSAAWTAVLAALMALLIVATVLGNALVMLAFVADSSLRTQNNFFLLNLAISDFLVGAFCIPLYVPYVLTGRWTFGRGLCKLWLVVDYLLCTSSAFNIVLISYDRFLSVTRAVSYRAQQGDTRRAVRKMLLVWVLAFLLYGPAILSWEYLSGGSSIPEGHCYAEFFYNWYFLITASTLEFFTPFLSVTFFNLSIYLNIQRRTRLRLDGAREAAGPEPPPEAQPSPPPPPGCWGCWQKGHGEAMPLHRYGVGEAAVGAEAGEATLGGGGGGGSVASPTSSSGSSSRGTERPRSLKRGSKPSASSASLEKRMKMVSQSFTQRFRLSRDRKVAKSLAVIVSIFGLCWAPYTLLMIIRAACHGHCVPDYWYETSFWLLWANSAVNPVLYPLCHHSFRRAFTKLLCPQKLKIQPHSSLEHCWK
readout: Ki (nM)

(1) COc1cccc(Oc2cncc(C(=O)N3CCCN(C4CCC4)CC3)c2)c1 [Example 5]
(2) O=C(c1cc(Sc2ccc(F)cc2)ccn1)N1CCCN(C2CCC2)CC1 [Example 15]
(3) O=C(c1cncc(Sc2ccncc2)c1)N1CCCN(C2CCC2)CC1 [Example 12]
Could you list the above compounds by Ki, going from the biggest number down? List each label, following the requested order.
2, 1, 3
(2: 12 nM, 1: 3.4 nM, 3: 1.8 nM)
